# Lookup of reported apparent KD of K4 kissing-loop reporter keyed by entry
- Test system: K4 kissing-loop RNA reporter
- ASSAY REMARKS: apparent KD of K4 kissing-loop reporter; higher = weaker reporter binding
- REPORTED CONDITIONS: Eterna round: R107; input ligand: tryptophan 2.4 mM

[
  {
    "SEQUENCE ENTRY": "AUUAAUUUCAGAGGAUAUCGUUAUUUUUUUUAUUUUAUUCAUUUAUGCAGUGAUGUUGCUAUUAUUCGAGAAGGCUGAUUUAUAA [JR_ExcFMNB_Sub005]",
    "OUTPUT UNIT": "nM",
    "apparent KD of K4 kissing-loop reporter": 74.1
  },
  {
    "SEQUENCE ENTRY": "AAUUCAAACUGAAGGAGCGAGCAUUUUGGAGUGAUGUUCCAAGCGAGUGAUGUUCGCAUAGCUCAGGUAGGUCGCAGUUUGGAUA [Same State Arginie B GF 14]",
    "OUTPUT UNIT": "nM",
    "apparent KD of K4 kissing-loop reporter": 139
  },
  {
    "SEQUENCE ENTRY": "UACUAUAUUCUGUCGUUUUUAUUAGUUUGUCAGGAUAUCGUUUAUUCGAGAAGGGACACUAUCUAGUGAUGUUAGAUAUUUCUUU [JR_Nu3_ExcFMNA_Sub030]",
    "OUTPUT UNIT": "nM",
    "apparent KD of K4 kissing-loop reporter": 72.9
  },
  {
    "SEQUENCE ENTRY": "UGGUUUAACUGAAGGAGCGGCAAUUGAUAAGUAGAUAUAGUGAUGUUAUAUAAGAUAGAGAGCCAGGUAGGUCGCAGAGGUGUUU [ExArgB.Q]",
    "OUTPUT UNIT": "nM",
    "apparent KD of K4 kissing-loop reporter": 189
  },
  {
    "SEQUENCE ENTRY": "UUAUCAUCAGCGGCCGCCACUGCAAAUUGGAGUGAUGUUCCAAGCGUGGAUAAUGAAAUCACUAGUAGGACCGGGUUGAUGAAUU [AK 1 Ex Trypt B]",
    "OUTPUT UNIT": "nM",
    "apparent KD of K4 kissing-loop reporter": 306
  },
  {
    "SEQUENCE ENTRY": "CUGACUCAAUAGUCAGUGAUGUUGACUGGACGAGGACCGGUACGGCCGCCACUCGAGAGUGGUGUAAAAUAUGUCACAGAGUCAG [Tryp A SS t3b]",
    "OUTPUT UNIT": "nM",
    "apparent KD of K4 kissing-loop reporter": 200
  },
  {
    "SEQUENCE ENTRY": "UAAAUAAAAUCCUAGUGAUGUUAGGAUAUGUAGGAUAUCGGGAUACCGAGAAGGACAGAAGGAGGAGUGAUGUUCCUCAAUAAAU [FmnAX 30 #DoubleAptamer #DoubleK4 #OpenEnded]",
    "OUTPUT UNIT": "nM",
    "apparent KD of K4 kissing-loop reporter": 59.5
  },
  {
    "SEQUENCE ENTRY": "GGAUAGGACAGAGGAUAUUGGUAGUGAUGUUACCAAAUAAAUAAACAGUCUACAAAGUAGGCUGACCAAGAAGGCUGUCCUAUCG [FmnBX 24 #SwitchBubble #StaticStem #Palindromic]",
    "OUTPUT UNIT": "nM",
    "apparent KD of K4 kissing-loop reporter": 74.7
  },
  {
    "SEQUENCE ENTRY": "GUUACGCAUGGAAGGAGCGCAGGCUCAACAAAUAGCUCAGUGAUGUUGAGCAUAUUAAUUCUGCAGGUAGGUCGCCAUGUGUAAC [Ex Arginine B K4 25]",
    "OUTPUT UNIT": "nM",
    "apparent KD of K4 kissing-loop reporter": 508
  },
  {
    "SEQUENCE ENTRY": "UUAGAUCUUCUAGAUACCAGUCUGUGUAUCAAUGAUACACUUGACUGAGUGAUGUUCAGAGGCCCUUGGCAGCUAGAAGAUCAUU [AK1 SS Theophylline B]",
    "OUTPUT UNIT": "nM",
    "apparent KD of K4 kissing-loop reporter": 490
  },
  {
    "SEQUENCE ENTRY": "UCCUGCAAUCCACCACGAAAGUGGAUGGAUACCAGAGUCGAAAGACUCCCUUGGCAGCCAGUGAUGUUGGAGCAGGUAAAAUAAA",
    "OUTPUT UNIT": "nM",
    "apparent KD of K4 kissing-loop reporter": 473
  },
  {
    "SEQUENCE ENTRY": "UUUGGAAGCGGUGUUGAUUAGGGAGCGGAAGGAGCGCCGAGGAGGGCAGGUAGGUCGCCGGAAUGUAGUGAUGUUGCAUAGAGGU [ExArgA.Aa]",
    "OUTPUT UNIT": "nM",
    "apparent KD of K4 kissing-loop reporter": 178
  }
]

###

- Tested on: K4 kissing-loop RNA reporter;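 also: bound reporter read as fluorescence of individual clusters on recovered sequencing chips by microscopy, with normalized cluster intensities fitted with a binding model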
- ASSAY REMARKS: apparent KD of K4 kissing-loop reporter; higher = weaker reporter binding
- REPORTED CONDITIONS: Eterna round: R107; input ligand: arginine 13.2 mM

[
  {
    "SEQUENCE ENTRY": "CUGUUUGGUUGAGAGGUUGGGCGGAAUGAUACCAGUAUAUAAGAAUACCCUUGGCAGCAUAAGAAAGAUAUAGUGAUGUUGUAUA [SSTheophA.K]",
    "apparent KD of K4 kissing-loop reporter (nM)": 297
  },
  {
    "SEQUENCE ENTRY": "UCGAAGGAUGGAAGGAGCGCUCGUCAGUCCUGCGAGUGAUGUUCGUGGGUAAAUAGUCGCGAGCAGGUAGGUCGCCAUCUUGAGC [Laxe]",
    "apparent KD of K4 kissing-loop reporter (nM)": 102
  },
  {
    "SEQUENCE ENTRY": "AAAUAAAGCAGUCACCCAGUGAUGUUGGAAGGAGCGUGCGAAAGCACAGGUAGGUCGCCAAAAUAAAGUGGCUGCGGCAAAGCCA [#SwitchBubble 25 #K4Early]",
    "apparent KD of K4 kissing-loop reporter (nM)": 428
  },
  {
    "SEQUENCE ENTRY": "ACCUACGAUCACAAAAGUGAUUGUAGGAUCUAGGAUAUGCUGAAAAGCAGAAGGAGAGUGAUGUUCUCAACUCACGAAAGUGAGA [FmnAX 1 #OpenEnded #K4Late]",
    "apparent KD of K4 kissing-loop reporter (nM)": 184
  },
  {
    "SEQUENCE ENTRY": "UGGUUUAACUGAAGGAGCGGCAAUUGAUAAGUAGAUAUAGUGAUGUUAUAUAAGAUAGAGAGCCAGGUAGGUCGCAGAGGUGUUU [ExArgB.Q]",
    "apparent KD of K4 kissing-loop reporter (nM)": 204
  },
  {
    "SEQUENCE ENTRY": "UGUCAUUGGUCGGCCGCCACUUCAAGGUCAAAGACCAAAGAGUGAUGUUCUAAGACGAAAGUCAGAAGGACCGGGACCGAUGACU [TrypBS 10 #SwitchBubble #K4Middle]",
    "apparent KD of K4 kissing-loop reporter (nM)": 67.7
  },
  {
    "SEQUENCE ENTRY": "CCAUCGCUAUUCGAUACCAGUCAUUAAAUCUUUGGUUUAAUAAAGGAGUGAUGUUCCCAAGACCCUUGGCAGCGAAUAGUGAUGG [Theophylline B K4 9]",
    "apparent KD of K4 kissing-loop reporter (nM)": 183
  },
  {
    "SEQUENCE ENTRY": "AUUCGUUUUUGUGAUACCAGACAUGUGAGUGAUGUUUACAUAUAUAUUUAAUAUUUAGCUGUCCCUUGGCAGCACUGUUUAUUUA [JR_ExcTheophyB_Sub003]",
    "apparent KD of K4 kissing-loop reporter (nM)": 384
  },
  {
    "SEQUENCE ENTRY": "GGAGGGAUCUCGGCCGCCACUCAUAAGAAAUGGGCCUCAGAAAUAUAGUGAUGUUAUGUAAAGAAGAGGACCGGGAGAAAGAAGG [ExTryptoB.Da]",
    "apparent KD of K4 kissing-loop reporter (nM)": 202
  },
  {
    "SEQUENCE ENTRY": "UGACAUUGCUCAGAUACCAGACUUGAGGAUCACCCAAGUGCCAAAACGUACUAAAUAAAAGUCCCUUGGCAGCUGAGCAAUGUCU [TheoBX 13]",
    "apparent KD of K4 kissing-loop reporter (nM)": 45.9
  },
  {
    "SEQUENCE ENTRY": "UAUGAAGGUGGAGGAUAUUGAUUGAGCCUUGGUCAGGAGUGAUGUUCCGGGAAGCCUUGGGUUCAUCGAGAAGGCCAAGGAUAGU [#09 K4 FMN B Same State]",
    "apparent KD of K4 kissing-loop reporter (nM)": 209
  },
  {
    "SEQUENCE ENTRY": "UGCUUUAUCAGAAGGAGCGCGUAAGUUAUACUAAUAAUCAGUGAUGUUGAUAUAUGAUCUUUGCAGGUAGGUCGCUGAUAUAGCU [KL-XARG-B4]",
    "apparent KD of K4 kissing-loop reporter (nM)": 419
  },
  {
    "SEQUENCE ENTRY": "CCUGCAGCUGUUACCGAGGGAUGCUACGGACGAGGACCGGUACGGCCGCCACUCGCCAGUGAUGUUGGUGAGGGAGGACGUUCCU [Georte]",
    "apparent KD of K4 kissing-loop reporter (nM)": 106
  },
  {
    "SEQUENCE ENTRY": "AAGAGAUAGGGAGGAUAUGCCCUAUUGAGAACCGAGUGAUGUUCGGUAGGACAAAUAGUCCACAGGGUAGAAGGCCCACAUCACA [SS FNM B Tesla 2]",
    "apparent KD of K4 kissing-loop reporter (nM)": 213
  },
  {
    "SEQUENCE ENTRY": "AAUUCAGUGAUGUUGGAAGGCAGGCGGGAUACCAGCGGAGAAUAACGCCCUUGGCAGCCCAUAUAUCCCAAAUAGAUAAUAGUUC [Same State - Theophylline A (Freestyle 3)]",
    "apparent KD of K4 kissing-loop reporter (nM)": 317
  },
  {
    "SEQUENCE ENTRY": "CUGGGUUGACGAAAAGUCAACAAAAGAGAAGGAGCGCACGAAAGUGCAGGUAGGUCGCUCAGUCCAGUGAUGUUGGAUCAUCCAG [#SwitchBubble 11 #K4Late]",
    "apparent KD of K4 kissing-loop reporter (nM)": 502
  },
  {
    "SEQUENCE ENTRY": "AAUUCUUAUCUUAGUUGAUUUCUAAUUAAACGAGGACCGGUACGGCCGCCACUCGGUUAUGAGUGAUGUUCAUGGAAUUACAUAA [JR_SSTryptoA_Sub019]",
    "apparent KD of K4 kissing-loop reporter (nM)": 601
  },
  {
    "SEQUENCE ENTRY": "CCAGGACGAUGAGGAUGAUGAAUUACUGAAGGAGCGCAUAUGGUUGCAGGUAGGUCGCGGUGAACAAGUAUAGUGAUGUUAUACC [SSArgA.U]",
    "apparent KD of K4 kissing-loop reporter (nM)": 282
  },
  {
    "SEQUENCE ENTRY": "GGUAGCAUGGCGGCCGCCACUUUAUACUCGGUCGUUGGCGUCGUAAGUGAUGUUUACAUUCGCAAAAGGACCGGGCCAUGCUACC",
    "apparent KD of K4 kissing-loop reporter (nM)": 56.6
  },
  {
    "SEQUENCE ENTRY": "GGAGGAGAAUAUGAUACCAGCAGAGAGAGAGAGGAAGUAUAGUGAUGUUAUAUGAGAGAAUGCCCUUGGCAGCAUAAGACGCAGG [#07 K4 Theophylline B Same State]",
    "apparent KD of K4 kissing-loop reporter (nM)": 114
  },
  {
    "SEQUENCE ENTRY": "AUACGCGAUAGCGUAUAUAACUUUUCAGAAGGAGCGUGGAAGUACACAGGUAGGUCGCUGAAUAUAGGACUAGUGAUGUUAGUUA [JR_Nu_SSArginiA_Sub025]",
    "apparent KD of K4 kissing-loop reporter (nM)": 220
  },
  {
    "SEQUENCE ENTRY": "AUUUAGACGAGUGAUGUUCGUGAUAUUACAGAGGAUAUGCUUAAAAGCAGAAGGCUGUAUUUAUAUUUGUUAUGUAAUUUUAAAA [JR_ExcFMNA_Sub005]",
    "apparent KD of K4 kissing-loop reporter (nM)": 95.4
  },
  {
    "SEQUENCE ENTRY": "ACCGCAUUGGGCUGAUCCCAAUGCGCUGGUCGAGGACCGGUACGGCCGCCACUCGUCCAGUGAUGUUGGACUAGGGCAACUGAAG [Veraceer]",
    "apparent KD of K4 kissing-loop reporter (nM)": 244
  },
  {
    "SEQUENCE ENTRY": "AAGUGAUGUUGUAGUGAUGUUGUGAUGUUGCAGGAUAUAUAGUGAUGUAGAAGGGUAUGUACUUAUUUUUUUUUUGAGUUAUGUU [wzzwzrmullin]",
    "apparent KD of K4 kissing-loop reporter (nM)": 33.4
  }
]

Data credit: the supplement of paper PMC9170038
